- System: Mus musculus
- Test Description: In vivo tail-flick latency after subcutaneous administration in mouse as an evaluation of antinociceptive potency
- Type: functional
- Test Parameters: sc
In plain terms, low ED50, meaning strictly below 6 µmol/kg, gives Y, and everything else gives N.

Example results:
Record Smiles	Group Label
COc1cc(CNC(=O)CCCC/C=C/C(C)C)ccc1O	N
COc1cc(C/N=C(\S)NCc2ccc(C(C)(C)C)cc2)ccc1OCCN	Y
COc1cc(C/N=C(\S)NCCc2ccc(Cl)cc2)ccc1O	N
CCCCCCCC/C=C\CCCCCCCC(=O)NCc1ccc(O)c(OC)c1	N
CCCCCCCC/C=C\CCCCCCCC(=O)NCc1ccc(OCCN)c(OC)c1	N

Read the next record carefully.
ED50 strictly < 6 µmol/kg for this compound? COc1cc(C/N=C(\S)NCCc2ccc(Cl)cc2)ccc1OCCN
Y

====

- Target Entity: Vanilloid receptor (Rattus norvegicus, UniProt Q9ERZ8+Q9WUD2+O35433)
- Test Description: Compound tested in vitro for [Ca2+] influx into neonatal rat dorsal root ganglia (DRG)
- Type: functional
// boundary case: EC50 equal to 2 µM maps to n; strictly smaller maps to y

# count of solved cases: 2
Record Smiles	Group Label
COc1cc(C/N=C(\S)NCCc2ccc(Cl)cc2)ccc1OCCNC(=O)OC(C)(C)C	n
COc1cc(C/N=C(\S)NCc2ccc(C(C)(C)C)cc2)ccc1OCCN	y

Decide: EC50 of COc1cc(C/N=C(\S)NCCc2ccc(Cl)cc2)ccc1OCCN1C(=O)c2ccccc2C1=O strictly below 2 µM?
n

Does this molecule meet the criterion EC50 < 2 µM? COc1cc(C/N=C(\S)NCCc2ccc(C(C)(C)C)cc2)ccc1OCCN
y

Given the entry COc1cc(C/N=C(\S)NCCc2ccc(Cl)cc2Cl)ccc1O , would its reported EC50 be below 2 µM?
y

Is 2 µM strictly greater than the molecule's reported EC50? molecule: COc1cc(C/N=C(\S)NCCc2ccc(Cl)cc2)ccc1OCC[N+](C)(C)C.O=C([O-])C(F)(F)F
n

Identify whether the molecule COc1cc(C/N=C(\S)NCCc2ccccc2)ccc1O records EC50 below 2 µM.
y

Below 2 µM on EC50? Entry COc1cc(C/N=C(\S)NCCc2ccc(F)cc2)ccc1OCCN
n
